Biological target: hGLP-1R (Homo sapiens, UniProt P43220)
Sequence (P43220 24-463): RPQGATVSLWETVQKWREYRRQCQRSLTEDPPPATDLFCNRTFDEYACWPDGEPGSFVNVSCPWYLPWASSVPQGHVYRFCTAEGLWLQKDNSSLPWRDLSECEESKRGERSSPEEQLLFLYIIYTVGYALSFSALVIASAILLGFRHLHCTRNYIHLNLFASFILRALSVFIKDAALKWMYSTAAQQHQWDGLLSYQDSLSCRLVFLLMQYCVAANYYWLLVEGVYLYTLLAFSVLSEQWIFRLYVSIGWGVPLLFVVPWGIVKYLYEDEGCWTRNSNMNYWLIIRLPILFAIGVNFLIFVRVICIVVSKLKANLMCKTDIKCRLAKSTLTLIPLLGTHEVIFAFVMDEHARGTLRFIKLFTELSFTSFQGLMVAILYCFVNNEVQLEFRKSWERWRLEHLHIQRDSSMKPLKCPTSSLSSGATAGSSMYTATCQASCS
Assay: cell-based or functional assay
Catalogue of Relative cAMP EC50 readings, one per entry.
Give your result in pM as a bare value.

Observe how each entry below is paired with its result.
[[record]]
binder = "YXQGTXTSDXXIXLDXKAAXEFIEXLIEGGPSSGAPPPSGGGE (synthetic construct; SITE 2: note = 2-Aminoisobutyric Acid; SITE 6: note = alpha-methyl-2-fluoro-L-phenylalanine; SITE 10: note = 3-(4-Pyridyl)-L-alanine; SITE 11: note = alpha-methyl-L-serine; SITE 13: note = alpha-methyl-leucine; SITE 16: note = L-ornithine; SITE 17: note = Lysine is chemically mo) [Example 747]"
observable = "Relative cAMP EC50"
observed = 229

[[record]]
binder = "YXQGTXTSDXXIXLDXKAQXEFIEXLIEGGPSSGEPPPSGSE (non-natural residues; Lys acylated C18 diacid; C-terminal amide; synthetic construct; SITE 2: note = 2-Aminoisobutyric Acid; SITE 6: note = alpha-methyl-L-phenylalanine; SITE 10: note = 3-(4-Pyridyl)-L-alanine; SITE 11: note = alpha-methyl-L-serine; SITE 13: note = alpha-methyl-leucine; SITE 16: note = L-ornithine; SITE 17: note = Lysine is chemically modified th) [Example 1167]"
observable = "Relative cAMP EC50"
observed = 636

[[record]]
binder = "YXQGTFTSDFSKXLDKKAQXAFIEYLLEGGPSSGEPPPTEG (C-terminal amide; acylated lysine; synthetic construct; SITE 2: note = 2-Aminoisobutyric Acid; SITE 13: note = alpha-methyl-leucine; SITE 17: note = Lysine is chemically modified through conjugation of the epsilon-amino group of the Lysine side chain with (2-[2-(2-Amino-ethoxy)-ethoxy]-acetyl)-(gamma-Glu)-CO-(CH2) 18-CO2H; SITE 20: n) [Example 36]"
observable = "Relative cAMP EC50"
observed = 3570

[[record]]
binder = "YXQGTXTSDXSIXLDKKAQXAFIEYLEEGGPSSGAPPPSGEGE (C-terminal amide; lysine acylated with (γ-Glu)2-C18 diacid; synthetic construct; SITE 2: note = 2-Aminoisobutyric Acid; SITE 6: note = alpha-methyl-2-fluoro-L-phenylalanine; SITE 10: note = 3-(4-Pyridyl)-L-alanine; SITE 13: note = alpha-methyl-leucine; SITE 17: note = Lysine is chemically modified through conjugation of the epsilon-amino group of the Lysine) [Example 623]"
observable = "Relative cAMP EC50"
observed = 907

[[record]]
binder = "YXQGTFTSDFSKXLDKKAQXAFIEYLIEGGPSSGAPPPSEG (not fully specified; acylated side chain; synthetic construct; SITE 2: note = 2-Aminoisobutyric Acid; SITE 13: note = alpha-methyl-leucine; SITE 17: note = Lysine is chemically modified through conjugation of the epsilon-amino group of the Lysine side chain with (2-[2-(2-Amino-ethoxy)-ethoxy]-acetyl)-(gamma-Glu)-CO-gamma -gamma-(CH2)16-CO2H) [Example 49]"
observable = "Relative cAMP EC50"
observed = 706


binder YXQGTFTSDFSKXLDKKAQXAFIEYLLEXGPSSGAPPPSGS (Aib, αMeL, acylated Lys, C-terminal amide; synthetic construct; SITE 2: note = 2-Aminoisobutyric Acid; SITE 13: note = alpha-methyl-leucine; SITE 17: note = Lysine is chemically modified through conjugation of the epsilon-amino group of the Lysine side chain with (2-[2-(2-Amino-ethoxy)-ethoxy]-acetyl)-(gamma-Glu)-CO-(CH2) 18-CO2H; SITE 20: n) [Example 45] , Relative cAMP EC50 observed: 1520

What the record says about YXQGTFTSDFSXXLDKKAQXAFIEWLLEGGPSSGAPPPTGS (synthetic construct; SITE 2: note = 2-Aminoisobutyric Acid; SITE 12: note = L-ornithine; SITE 13: note = alpha-methyl-leucine; SITE 17: note = Lysine is chemically modified through conjugation of the epsilon-amino group of the Lysine side chain with (2-[2-(2-Amino-ethoxy)-ethoxy]-acetyl)-(gamma-Glu)) [Example 250] : Relative cAMP EC50 is 2080

Entry under test: YXQGTFTSDFSXXLDKKAQXAFIEYLLEGGPSSGAPPPSGE (synthetic construct; SITE 2: note = 2-Aminoisobutyric Acid; SITE 12: note = L-ornithine; SITE 13: note = alpha-methyl-leucine; SITE 17: note = Lysine is chemically modified through conjugation of the epsilon-amino group of the Lysine side chain with (2-[2-(2-Amino-ethoxy)-ethoxy]-acetyl)2-(gamma-Glu)) [Example 107] . Its Relative cAMP EC50 was 8500

response.value for YXQGTFTSDFSKXLDKKAQXAFIEYLLEGGPSSGAPPPSEGX (synthetic construct; SITE 2: note = 2-Aminoisobutyric Acid; SITE 13: note = alpha-methyl-leucine; SITE 17: note = Lysine is chemically modified through conjugation of the epsilon-amino group of the Lysine side chain with (2-[2-(2-Amino-ethoxy)-ethoxy]-acetyl)-(gamma-Glu)-CO-(CH2) 16-CO2H; SITE 20: n) [Example 56] (field: Relative cAMP EC50) = 4070

Per the record, YXQGTXTSDXXIXLDXKAQXEFIEXLVEGGPSSGAPPPSGE (synthetic construct; SITE 2: note = 2-Aminoisobutyric Acid; SITE 6: note = alpha-methyl-2-fluoro-L-phenylalanine; SITE 10: note = 3-(4-Pyridyl)-L-alanine; SITE 11: note = alpha-methyl-L-serine; SITE 13: note = alpha-methyl-leucine; SITE 16: note = L-ornithine; SITE 17: note = Lysine is chemically mo) [Example 749] has Relative cAMP EC50 of 293

Kindly note the recorded Relative cAMP EC50 for YXQGTXTSDXSIXLDXKAQXEFIEXLIEGGPSSGAPPPSGE (non-natural residues, acylated Lys, C-terminal amide; synthetic construct; SITE 2: note = 2-Aminoisobutyric Acid; SITE 6: note = alpha-methyl-2-fluoro-L-phenylalanine; SITE 10: note = 3-(4-Pyridyl)-L-alanine; SITE 13: note = alpha-methyl-leucine; SITE 16: note = L-ornithine; SITE 17: note = Lysine is chemically modified through conjugation of the epsil) [Example 614] , which is 251

The binder listed as YXQGTFTSDXSQXLDXKAQXAFIQXLIEGGPSSGAPPPSGSEE (Aib, 4Pal, αMeL, Orn, Me4Pal, αMeY; acylated Lys; C-terminal amide; synthetic construct; SITE 2: note = 2-Aminoisobutyric Acid; SITE 10: note = 3-(4-Pyridyl)-L-alanine; SITE 13: note = alpha-methyl-leucine; SITE 16: note = L-ornithine; SITE 17: note = Lysine is chemically modified through conjugation of the epsilon-amino group of the Lysine side chain with D-Glutami) [Example 1072] shows Relative cAMP EC50 equal to 889
